- Experimental Details: blockers of IgG-bead uptake by macrophages – imaging, J774A.1 cells, IgG beads, primary screen (AID 1029);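 further: phagocytic index as fraction of beads internalized from green versus red external bead signal; plate controls were DMSO negative control for no effect and cytochalasin-D positive control for full effect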
- Condition Notes: J774A.1 macrophage IgG-bead phagocytosis, at 5 µM, stronger effect = higher value
Among all 110,000 compounds or so, about 80 (0.07%) were called active. The sample holds actives, similar compounds and a random draw of the others, so the mix is not that of the screen.
Metric Name: inhibition (%)
Express the result in % but write the number alone.

O=C(O)c1cccc(N2C(=O)Nc3ccccc3N2O)c1	-9.86

Record request: inhibition value, item `Cc1cc(/C=C2\SC(=Nc3ccc(N4CCOCC4)cc3)N(C)C2=O)c(C)n1-c1cccnc1` -0.72

Record request: inhibition value, item `Cc1ccc(CN2C(=O)N/C(=C/c3cc(C)n(-c4ccccn4)c3C)C2=O)cc1` -12.6

Record request: inhibition value, item `Cc1nc2ccccc2nc(C)c1=NOCc1ccc(Cl)cc1Cl` -8.1

Record request: inhibition value, item `CCOc1ccc(C(=O)NC(=S)Nc2ccc(NC(=O)C(C)C)cc2)cc1[N+](=O)[O-]` -0.7

###

- Experimental Details: blockers of IgG-bead uptake by macrophages – imaging, J774A.1 cells, IgG beads, primary screen (AID 1029)
- Condition Notes: J774A.1 macrophage IgG-bead phagocytosis, at 5 µM
Among all 110,000 compounds or so, about 80 (0.07%) were called active.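 Rule for the calls: active = inhibition above the mean of the plate negative controls plus 5 SD (cut at about 13% in these data); inactive = the rest.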 Shown is part of a subset that was picked to be rich in actives.
Result category, one only: active, inactive

COc1ccc(NC(=S)NC2CCS(=O)(=O)C2)cc1 (configuration not stated)	inactive
COc1ccccc1N1CCN(CC(=O)NC(=O)NCc2ccco2)CC1	inactive
COc1ccc(-c2csc3ncnc(Oc4ccc5c(C)cc(=O)oc5c4)c23)cc1	inactive
O=C(Cn1cc(C(F)(F)F)ccc1=O)N/N=C/c1ccc(Cl)cc1Cl	inactive
CCNc1ccc(C(=O)OCC(=O)N2c3ccccc3NC(=O)C2(C)C)cc1[N+](=O)[O-]	inactive

// switching to the query molecule
// return assay outcome for `O=C(CN1CCSCC1)N/N=C/c1ccc(F)cc1` inactive

###

Reported inhibition by item:
- Experimental Details: blockers of IgG-bead uptake by macrophages – imaging, J774A.1 cells, IgG beads, primary screen (AID 1029);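 further: phagocytic index as fraction of beads internalized from green versus red external bead signal; plate controls were DMSO negative control for no effect and cytochalasin-D positive control for full effect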
- Condition Notes: J774A.1 macrophage IgG-bead phagocytosis, at 5 µM, stronger effect = higher value
About 80 (0.07%) of roughly 110,000 compounds were called active. Only a selection was taken, and actives are over-represented in it overall.

Recorded inhibition, per entry:
O=C(N/N=C/c1coc2ccccc2c1=O)c1cc2ccccc2o1	-4.52% (inactive)
CCC1CCc2c(sc(NC(C)=O)c2C#N)C1 (stereo unspecified)	-7.48% (inactive)
CCCOC(=O)c1ccc(N2C(=O)c3ccccc3C2=O)cc1	-13.4% (inactive)
S=C(NCCc1ccccc1)NCC1CCCO1 (stereo unspecified)	2.03% (inactive)
NS(=O)(=O)c1ccc(N=Cc2ccc(Br)s2)cc1	-3.71% (inactive)

Record request: inhibition value, item Cc1ccccc1N(C(=O)Cc1cccs1)C(C(=O)NC1CCCCC1)c1cn(C)nc1C (stereo unspecified) -10.4% (inactive)

Record request: inhibition value, item `CCCc1nc(SCC(=O)Nc2ccc(S(=O)(=O)N(C)C)cc2)c2ccccc2n1` -8.66% (inactive)

###

- Experimental Details: blockers of IgG-bead uptake by macrophages – imaging, J774A.1 cells, IgG beads, primary screen (AID 1029);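 further: phagocytic index as fraction of beads internalized from green versus red external bead signal; plate controls were DMSO negative control for no effect and cytochalasin-D positive control for full effect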
- Condition Notes: J774A.1 macrophage IgG-bead phagocytosis, at 5 µM, stronger effect = higher value
The whole screen tested about 110,000 compounds, of which about 80 (0.07%) were called active. This excerpt belongs to a sample that is enriched for actives.
Reported inhibition by item:
Express the result in % but write the number alone.

COc1cc(CCC(=O)OCC(=O)Nc2cccc(S(N)(=O)=O)c2)cc(OC)c1OC	-3.93
Cc1ccc(C2=NN(C(=O)CSc3nc(N)cc(N)n3)C(c3ccco3)C2)cc1 (centres undefined)	-1.98
COc1ccc(N2C(=O)C(O)C2c2ccc(C)cc2)cc1 (centres undefined)	-1.93
COc1ccc([C@H]2[C@H](C(C)=O)N3N=Cc4ccccc4C3C23C(=O)OC(C)(C)OC3=O)cc1 (some centres undefined)	5.33
N=C1C(=O)OCC1c1ccccc1NC(=O)CN1CCCCC1 (centres undefined)	-1.24
O=C(NC(=S)Nc1cc(C(F)(F)F)ccc1N1CCOCC1)c1ccc(-c2cccc(Cl)c2)o1	-11.9
COc1ccc(OCC(=O)Nc2cc(C)c(Cl)cc2OC)c([N+](=O)[O-])c1	-2.85
Cc1ccc2c(c1)C1CN(C)CCC1N2C(=O)c1ccccc1NS(=O)(=O)c1ccc(F)cc1C (centres undefined)	-3.92

Record request: inhibition value, item c1ccc(-c2cc3c(NCC4COc5ccccc5O4)ncnc3s2)cc1 (centres undefined) -5.69

Record request: inhibition value, item `CCOc1ccc(Oc2nc(C)cc(OC)n2)nn1` -0.15

Record request: inhibition value, item `O=C(c1cccs1)n1nc(NCc2ccccc2)nc1NCc1ccccc1` -7.68

Record request: inhibition value, item `CCCCC(=O)Nc1ccc(C(=O)Nc2cc(C(F)(F)F)ccc2Cl)cc1` -2.66

Record request: inhibition value, item `COc1cccc(NC(=S)NCc2ccco2)c1` -4.01

Record request: inhibition value, item `O=C(N/N=C/c1ccc2c(c1)OCO2)c1ccc(Cn2cc([N+](=O)[O-])cn2)o1` -3.46

Record request: inhibition value, item `O=C(CNS(=O)(=O)c1ccccc1)NCC(=O)OCc1ccccc1F` -3.58

Record request: inhibition value, item `COc1ccccc1-c1nnc(NC(=O)c2ccc3ncsc3c2)o1` -6.06

Record request: inhibition value, item `COC(=O)c1ccccc1NS(=O)(=O)c1ccc2[nH]c(=O)[nH]c2c1` -2.75

Record request: inhibition value, item Cc1ccc(NC(=O)CC2S/C(=N/N=C3\CCCc4ccccc43)NC2=O)cc1 (centres undefined) -6.09

Record request: inhibition value, item `Cc1ccccc1C1=NC(C(F)(F)F)(C(F)(F)F)c2c(n(-c3ccc(F)cc3)c(=O)[nH]c2=O)N1` -2.94

Record request: inhibition value, item `Cc1cccc(-c2nc3ccccc3c(=O)n2NC(=O)Cc2ccc(Cl)cc2)c1` -9.34

###

- Experimental Details: blockers of IgG-bead uptake by macrophages – imaging, J774A.1 cells, IgG beads, primary screen (AID 1029);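 further: phagocytic index as fraction of beads internalized from green versus red external bead signal; plate controls were DMSO negative control for no effect and cytochalasin-D positive control for full effect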
- Condition Notes: J774A.1 macrophage IgG-bead phagocytosis, at 5 µM, stronger effect = higher value
In all, about 110,000 compounds went through this assay and about 80 (0.07%) were called active. Many of the other results were omitted from the sample, so actives are more common in it than they were.
Reported inhibition by item:
Express the result in % but write the number alone.

Recorded inhibition, per entry:
CO/N=C(\N)c1ccc([N+](=O)[O-])cc1	-3.92
CCOc1ccc2nc(NC(=O)c3cc([N+](=O)[O-])ccc3N3CCOCC3)sc2c1	3.64
O=C(Nc1ccccc1Cc1ccccc1)c1ccc2c(c1)SC1=NS(=O)(=O)CCN12	-3.83
O=[N+]([O-])c1ccc(NCCCO)c(C(F)(F)F)c1	-3.18

Record request: inhibition value, item `CN(C)c1ccc(/C=N/NC(=O)c2ccc(Cn3cc(Br)cn3)o2)cc1` -0.35

Record request: inhibition value, item `O=C(CN1C(=O)/C(=C\c2ccccc2F)SC1=S)Nc1nc2ccccc2s1` -11.3

Record request: inhibition value, item COC(=O)c1c(NC(=O)CN2CCN(S(=O)(=O)c3ccccc3[N+](=O)[O-])CC2)sc2c1CCC(C)C2 (configuration not stated) -4.89

Record request: inhibition value, item `Cc1ccnc(NC(=O)Cn2ccc([N+](=O)[O-])n2)c1` -6.53

Record request: inhibition value, item `Cc1ccc(-n2[nH]c(C)c(/C=N/NC(=O)c3cccc([N+](=O)[O-])c3)c2=O)cc1C` -4.72

Record request: inhibition value, item `CC(=O)Nc1ccc(/C(C)=N/NC(=O)CN(c2ccccc2Br)S(C)(=O)=O)cc1` -1.53

Record request: inhibition value, item S=C(NCC1COc2ccccc2O1)Nc1ccc(Br)cc1 (configuration not stated) -5.67

Record request: inhibition value, item `O=C(O)c1ccc2c(c1)C(=O)N(NC(=O)c1ccc(O)cc1)C2=O` -5.14

Record request: inhibition value, item `Cc1nn(Cc2ccc(F)cc2)c(C)c1NC(=O)c1cccnc1Cl` -2.17

Record request: inhibition value, item NC1=C([N+](=O)[O-])C(c2ccccc2)C2=C(CCCC2=O)O1 (configuration not stated) -3.95

Record request: inhibition value, item O=C1OC(OC(=O)c2ccccc2Br)C(N2CCOCC2)=C1Cl (configuration not stated) -11.1

Record request: inhibition value, item CCc1ccc(C2C(C#N)=C(N)N(N(C)C)C3=C2C(=O)CCC3)s1 (configuration not stated) -3.98

Record request: inhibition value, item CC(=O)Nc1ccc(S(=O)(=O)NC2(C(F)(F)F)C(=O)Nc3c2c(=O)[nH]c(=O)n3Cc2ccccc2)cc1 (configuration not stated) -1.92
